What cell viability was measured for each of the following?
System: HL-60
Assay: cell viability (% survival relative to DMSO control, bortezomib = 0%); higher = less cytotoxic
Details: 100 nM; 72 h
Answers are plain numbers, in %.

Worked cases, cell viability given:
> print(dat)
                                   molecule  reported.measurement
1  COc1cc(/C=C/c2ccc(OC)cc2OC)cc(OC)c1 [2,3',4,5'-Tetramethoxystilbene]                  96.2
2  OC[C@H]1OC(O)C[C@@H](O)[C@@H]1O (stereo partly drawn) [2-deoxyglucose]                   106
3  O=C(/C=C/c1cccnc1)NCCCCC1CCN(C(=O)c2ccccc2)CC1 [Daporinad]                -0.363

Record cell viability per entry; entries follow.
1. Cn1c2cc(S(C)=O)sc2c2cnn(Cc3cccc(N)c3)c(=O)c21 (stereo not drawn) [TEPP-46]
2. OCC(CO)N[C@H]1C[C@](O)(CO)[C@@H](O)[C@H](O)[C@H]1O [Voglibose]
3. CCC(CC#N)OC(=O)N[C@@H](C)c1cccc(NC(=O)Nc2ccc(-c3cnco3)c(OC)c2)c1 (stereo in doubt) [AVN-944]
4. CN(C)C(=N)NC(=N)N [Metformin]
5. Nc1nc(O)c2c(CCc3ccc(C(=O)N[C@@H](CCC(=O)O)C(=O)O)cc3)c[nH]c2n1 [Pemetrexed]

**A:**
98.8
116
61.6
109
113
